procedure-details: qHTS assay to identify small molecule agonists of the estrogen receptor beta (ER-beta) signaling pathway - cell viability counter screen (AID 1259380); further: nearly all actives have a fitted effect of over 30% in size
condition-notes: ER-beta-bla HEK293T viability, CellTiter-Glo luminescence, 16 h; series mostly up to 92.4 µM
Description: National Center for Advancing Translational Sciences [NCATS] NIH Chemical Genomics Center [NCGC] U.S. Environmental Protection Agency [EPA] National Institutes of Environmental Health Sciences [NIEHS] National Toxicology Program [NTP] U.S. Food and Drug Administration [FDA] Estrogen receptor (ER), a nuclear hormone receptor, plays an important role in development, metabolic homeostasis and reproduction. […]
Inconclusive results are not listed. Calls of active or inactive are those of the source. The call rests on the fitted dose curve; in most records, active means well fitted cell-killing curve with a large enough effect in the repeat runs; inconclusive means weak or mixed curves, or effect the other way; inactive means flat fitted curve, though single readings scatter.
Pick one and only one: active, inactive

Recorded results for 3 compounds are shown here.
>  <smiles>
NC(CO)(CO)CO

>  <group-label>
inactive

$$$$
>  <smiles>
O=S1(=O)OC(c2ccc(O)cc2)(c2ccc(O)cc2)c2ccccc21

>  <group-label>
inactive

$$$$
>  <smiles>
CC(=O)CCC(=O)O

>  <group-label>
inactive

$$$$

Call for entry "Cc1ccc(S(=O)(=O)O)cc1" :
inactive

----------
procedure-details: qHTS assay to identify small molecule agonists of the TGF-beta/Smad signaling pathway - cell viability counter screen (AID 1346829); further: top concentration of the series differs between compounds; nearly all actives have a fitted effect of over 45% in size
condition-notes: SBE-bla HEK293T viability, CellTiter-Glo luminescence, 5 h; series mostly up to 76.8 µM
Results filed as inconclusive are left out. Calls of active or inactive are those of the source. Calls follow the shape of the dose curve; as a rule, active = well fitted cell-killing curve with a large enough effect in the repeat runs; inconclusive = weak or mixed curves, or effect the other way; inactive = flat fitted curve, though single readings scatter.
endpoint-name: outcome

Illustrative cases are given below, each with its answer.
>  <molecule>
Oc1ccccc1

>  <outcome>
inactive

$$$$
>  <molecule>
CC(C)c1c(C(=O)Nc2ccccc2)c(-c2ccccc2)c(-c2ccc(F)cc2)n1CC[C@@H](O)C[C@@H](O)CC(=O)O

>  <outcome>
inactive

$$$$
>  <molecule>
COc1ccc(C(Cl)=C(c2ccc(OC)cc2)c2ccc(OC)cc2)cc1

>  <outcome>
inactive

$$$$
>  <molecule>
CCN(CC)C(=O)c1cccc(C)c1

>  <outcome>
inactive

$$$$
>  <molecule>
COc1ccc2c(c1)c(CC(=O)O)c(C)n2C(=O)c1ccc(Cl)cc1

>  <outcome>
inactive

$$$$

// returns reported outcome for input "COc1ccc(CN(CCN(C)C)c2ccccn2)cc1"
inactive

Now consider "Cc1cc(=O)oc2cc(O)ccc12" .
inactive

Now consider "CCCC[P+](CCCC)(CCCC)CCCC" .
inactive

Now consider "O=C1O[C@H]([C@@H](O)CO)C(O)=C1O" .
inactive

Now consider CC(=O)CC(c1ccccc1)c1c(O)c2ccccc2oc1=O (stereo not given) .
inactive

Now consider "O=CC(=O)c1ccccc1" .
inactive

Now consider "CC(=O)C(=O)O" .
inactive

Now consider "COc1cccc(O)c1O" .
inactive

Now consider "CN1CCC[C@H]1c1cccnc1" .
inactive

----------
procedure-details: qHTS assay to identify small molecule agonists of the peroxisome proliferator-activated receptor delta (PPARd) signaling pathway - cell viability counter screen (AID 743211); further: nearly all actives have a fitted effect of over 55% in size; further: potency means the concentration at half of the fitted maximal effect
condition-notes: PPARd-bla HEK293H viability, CellTiter-Glo luminescence, 17 h; series mostly up to 62.6 µM
Results filed as inconclusive are left out. Activity calls are given as the source filed them. The call rests on the fitted dose curve; in most records, active means well fitted cell-killing curve with a large enough effect in the repeat runs; inconclusive means weak or mixed curves; inactive means no such curve, though single readings can be large or run the other way.

>  <molecule>
NS(=O)(=O)c1cc2c(cc1Cl)NCNS2(=O)=O

>  <Potency>
inactive

$$$$
>  <molecule>
NC(=O)n1c(O)c(C(=O)c2cccs2)c2cc(Cl)ccc21

>  <Potency>
inactive

$$$$
>  <molecule>
CCN(CC)C(=O)c1cccc(C)c1

>  <Potency>
inactive

$$$$
>  <molecule>
C1CCC(C(CC2CCCCN2)C2CCCCC2)CC1 (centres undefined)

>  <Potency>
26.6 µM (active)

$$$$

----------
procedure-details: A CellTox Green Cytotoxicity Assay to monitor cytotoxicity in HEK293 cells - 40 hour (AID 1224871); further: nearly all actives have a fitted effect of over 45% in size
condition-notes: CellTox Green fluorescence; series mostly up to 76.8 µM
Records with an inconclusive call do not appear. The source made the active and inactive calls. Calls follow the shape of the dose curve; as a rule, active = well fitted activation curve with a large enough effect in the repeat runs; inconclusive = weak or mixed curves; inactive = flat fitted curve, though single readings scatter.
Pick one and only one: 1 (yes) (active), 0 (no) (inactive)

>  <compound>
CCN(CC)C(=O)c1cccc(C)c1

>  <group-label>
0 (no)

$$$$

Call for entry "O=C(O)c1ccccc1" :
0 (no)

----------
procedure-details: Caspase-3/7 induction in HepG2 cells by small molecules, qHTS assay (AID 1346978); further: nearly all actives have a fitted effect of over 15% in size
condition-notes: HepG2 caspase-3/7 activation, Caspase-Glo luminescence, 17 h; series mostly up to 92.4 µM
Results filed as inconclusive are left out. The source made the active and inactive calls. The call rests on the fitted dose curve; in most records, active means well fitted activation curve with a large enough effect in the repeat runs; inconclusive means weak or mixed curves; inactive means flat fitted curve, though single readings scatter.
Pick one and only one: active, inactive

>  <compound>
C1CCC(C(CC2CCCCN2)C2CCCCC2)CC1 (configuration not stated)

>  <group-label>
active

$$$$

Call for entry "CN(C)CCOC(c1ccccc1)c1ccccc1" :
inactive

Now consider "NC(=O)n1c(O)c(C(=O)c2cccs2)c2cc(Cl)ccc21" .
inactive

Now consider "Cn1c(=O)c2c(ncn2C)n(C)c1=O" .
inactive

Now consider "CC(C)c1c(C(=O)Nc2ccccc2)c(-c2ccccc2)c(-c2ccc(F)cc2)n1CC[C@@H](O)C[C@@H](O)CC(=O)O" .
active

Now consider "O=c1[nH]cc(F)c(=O)[nH]1" .
inactive

Now consider "C/C=C/C=C/C(=O)O" .
inactive

Now consider "NC(CO)(CO)CO" .
inactive

Now consider "CC12CCC(CC1)C(C)(C)O2" .
inactive

Now consider "CC(=O)C(=O)O" .
inactive

Now consider "CN1CCC[C@H]1c1cccnc1" .
inactive

Now consider "Cc1ncc([N+](=O)[O-])n1CCO" .
inactive

----------
procedure-details: qHTS assay to identify small molecule antagonists of the estrogen related receptor signaling pathway with the pleiotropic PPARgamma coactivator (PGC) from Tox21 10K library (AID 1224841); further: actives are mostly falling curves and most rising ones were filed inactive; nearly all actives have a fitted effect of over 50% in size
condition-notes: PGC/ERR reporter cell line, ONE-Glo luciferase, 18 h; series mostly up to 92.4 µM
From the text: U.S. Tox21 Program National Center for Advancing Translational Sciences [NCATS] NIH Chemical Genomics Center [NCGC] U.S. Environmental Protection Agency [EPA] National Institutes of Environmental Health Sciences [NIEHS] National Toxicology Program [NTP] U.S. Food and Drug Administration [FDA] Tox21 Assay Overview: Estrogen related receptors (ERRs), the first orphan nuclear receptors discovered, play an important role in the control of cellular energy metabolism. […]
Records with an inconclusive call do not appear. Activity calls are given as the source filed them. How the calls were made is not given here.
endpoint-name: outcome

Illustrative cases are given below, each with its answer.
>  <molecule>
Cc1cccc(C)c1

>  <outcome>
inactive

$$$$
>  <molecule>
CN[C@H]1CC[C@@H](c2ccc(Cl)c(Cl)c2)c2ccccc21

>  <outcome>
inactive

$$$$
>  <molecule>
CN(C)CCOC(C)(c1ccccc1)c1ccccn1 (stereo unspecified)

>  <outcome>
inactive

$$$$
>  <molecule>
CCOc1ccc(NC(C)=O)cc1

>  <outcome>
inactive

$$$$
>  <molecule>
Nc1ccc(O)c([N+](=O)[O-])c1

>  <outcome>
inactive

$$$$
>  <molecule>
CCCCCCc1ccc(O)cc1O

>  <outcome>
inactive

$$$$
>  <molecule>
O=c1[nH]cnc2c1ncn2[C@H]1CC[C@@H](CO)O1

>  <outcome>
inactive

$$$$
>  <molecule>
CCN(CC)C(=O)c1cccc(C)c1

>  <outcome>
inactive

$$$$

// returns reported outcome for input "NS(=O)(=O)c1cc2c(cc1Cl)NCNS2(=O)=O"
inactive

Now consider "O=CC(=O)c1ccccc1" .
inactive

Now consider "Cc1ncc([N+](=O)[O-])n1CCO" .
inactive

----------
procedure-details: A CellTox Green Cytotoxicity Assay to monitor cytotoxicity in HepG2 cells - 40 hour (AID 1224879); further: nearly all actives have a fitted effect of over 40% in size
condition-notes: CellTox Green fluorescence; series mostly up to 76.8 µM
Inconclusive results are not listed. Calls of active or inactive are those of the source. Calls come from the whole dose curve; as a rule, active = well fitted activation curve with a large enough effect in the repeat runs; inconclusive = weak or mixed curves; inactive = flat fitted curve, though single readings scatter.
Pick one and only one: active, inactive

Recorded results for 5 molecules are shown here.
>  <molecule>
Cc1cc(C)nc(NS(=O)(=O)c2ccc(N)cc2)n1

>  <group-label>
inactive

$$$$
>  <molecule>
CCc1nc(N)nc(N)c1-c1ccc(Cl)cc1

>  <group-label>
inactive

$$$$
>  <molecule>
COc1ccc(CN(CCN(C)C)c2ccccn2)cc1

>  <group-label>
inactive

$$$$
>  <molecule>
C=C(C)C(=O)OCC(C)O (stereo unspecified)

>  <group-label>
inactive

$$$$
>  <molecule>
COc1ccc2cc(S(=O)(=O)N[C@H](CC(=O)N[C@H](Cc3ccc(CN4[C@H](C)CCC[C@@H]4C)cc3)C(=O)N(C)C(C)C)c3ccc4c(c3)OCO4)ccc2c1

>  <group-label>
active

$$$$

Below: the item to evaluate.
Call for entry "CCCCC1(COC(=O)CCC(=O)O)C(=O)N(c2ccccc2)N(c2ccccc2)C1=O" :
inactive

----------
procedure-details: qHTS assay to identify small molecule antagonists of the peroxisome proliferator-activated receptor delta (PPARd) signaling pathway - cell viability counter screen (AID 743213); further: nearly all actives have a fitted effect of over 50% in size
condition-notes: PPARd-bla HEK293H viability, CellTiter-Glo luminescence, 17 h; series mostly up to 62 µM
Results filed as inconclusive are left out. Calls of active or inactive are those of the source. Calls come from the whole dose curve; as a rule, active = well fitted cell-killing curve with a large enough effect in the repeat runs; inconclusive = weak or mixed curves; inactive = no such curve, though single readings can be large or run the other way.
Pick one and only one: true (1) for active, false (0) for inactive

Recorded results for 5 compounds are shown here.
>  <smiles>
COc1ccc(OC(F)(F)F)cc1CN[C@H]1CCCN[C@H]1c1ccccc1

>  <group-label>
true (1)

$$$$
>  <smiles>
COc1ccc(CN(CCN(C)C)c2ccccn2)cc1

>  <group-label>
false (0)

$$$$
>  <smiles>
O=S1(=O)OC(c2ccc(O)cc2)(c2ccc(O)cc2)c2ccccc21

>  <group-label>
false (0)

$$$$
>  <smiles>
O=C1O[C@H]([C@@H](O)CO)C(O)=C1O

>  <group-label>
false (0)

$$$$
>  <smiles>
Oc1ccccc1

>  <group-label>
false (0)

$$$$

Below: the item to evaluate.
Call for entry "Nc1ccc(S(N)(=O)=O)cc1" :
false (0)
